Values compiled from the RNAGym collection of RNA variant scans (doi:10.7554/elife.90254).

B1: OR4K15 (parent)
chain: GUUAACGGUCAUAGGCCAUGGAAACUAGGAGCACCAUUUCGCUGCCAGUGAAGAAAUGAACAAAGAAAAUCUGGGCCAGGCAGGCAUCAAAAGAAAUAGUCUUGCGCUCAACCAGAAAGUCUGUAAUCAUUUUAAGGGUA

- Variants of: B1
- assayInfo: self-cleavage, relative activity (ratio to wild type); higher = more cleavage; in vitro, sequencing; the parent is a self-cleaving ribozyme
Class key for self-cleavage values: lower: < 0.5; middle: ≥ 0.5 and < 1; upper: ≥ 1

Solved entries (count: 4):
[
  {
    "mutationList": "A51C G99A",
    "labelValue": "middle"
  },
  {
    "mutationList": "A90U G99A",
    "labelValue": "middle"
  },
  {
    "mutationList": "G1U A63G",
    "labelValue": "middle"
  },
  {
    "mutationList": "A56G G83U",
    "labelValue": "middle"
  }
]

Kindly review the next variant as well.
[in] GET /class?item= A52G U57A
[out] upper
